For each entry below, report its z-score value.
target: NADPH oxidase 2 (Homo sapiens) (UniProt P04839); assay: NOX2-dependent H2O2 signal modulators, primary screen, NOX inhibitor project, cell-based, HEK293-NOX2, PMA-stimulated, Amplex Red fluorescence (AID 1159); conditions: 45 min, higher = more signal, called active from +8 up or from −8 down; also: test concentration not given here
Sequence (P04839 whole entry, looked up): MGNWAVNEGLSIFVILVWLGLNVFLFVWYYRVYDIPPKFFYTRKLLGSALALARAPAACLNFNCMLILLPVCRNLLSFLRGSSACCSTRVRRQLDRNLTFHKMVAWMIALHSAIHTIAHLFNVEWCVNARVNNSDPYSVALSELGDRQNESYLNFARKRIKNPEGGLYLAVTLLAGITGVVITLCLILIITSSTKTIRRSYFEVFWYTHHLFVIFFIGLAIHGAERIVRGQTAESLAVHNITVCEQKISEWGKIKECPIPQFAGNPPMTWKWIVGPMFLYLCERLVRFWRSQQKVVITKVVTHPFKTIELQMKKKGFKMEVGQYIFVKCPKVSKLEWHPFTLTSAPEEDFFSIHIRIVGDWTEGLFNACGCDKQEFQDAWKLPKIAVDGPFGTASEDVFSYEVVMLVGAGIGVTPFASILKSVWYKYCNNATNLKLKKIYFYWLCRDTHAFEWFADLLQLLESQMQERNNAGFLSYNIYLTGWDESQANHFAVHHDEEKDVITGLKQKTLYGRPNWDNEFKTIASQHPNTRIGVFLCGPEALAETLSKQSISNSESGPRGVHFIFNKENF
Please give the numeric answer without any surrounding text.

Query: Short answer please: z-score, NADPH oxidase 2 (Homo sapiens) (UniProt P04839), entry `C[C@H]1ON(c2ccc(C(=O)OC(C)(C)C)cc2)[C@@H](c2ccc(O)cc2)[C@@H]1C(=O)N1C(=O)OC[C@@H]1c1ccccc1`
Response: -0.414

Query: Let us now turn to `C=C(CCCC)C(=O)CC[C@@H](OC(=O)c1ccccc1-c1ccccc1C(=O)O)c1cccc(OCCO)c1`
Response: 2.86

Query: Let us now turn to `COC(=O)[C@@]1(Cc2ccccc2)[C@H]2c3cc(C(=O)N4CCCC4)n(C[C@H](O)CO)c3C[C@H]2CN1C(=O)c1ccccc1`
Response: 0.223

Query: Let us now turn to `COC(=O)[C@@]1(Cc2ccc(OC)cc2)[C@H]2c3cc(C(=O)N(C)C)n(CCc4c[nH]c5ccc(O)cc45)c3C[C@H]2CN1C(=O)c1ccccc1`
Response: 0.689

Query: Let us now turn to `COc1ccc([Si](C)(C)[C@@H]2[C@@H](CCO)O[C@]3(C(=O)N(Cc4cccc(N5C(=O)c6ccccc6Oc6ccccc65)c4)c4ccccc43)[C@H]2C)cc1`
Response: 0.423

Query: Let us now turn to CN1C(=O)C2C=CC(C(O)c3c(F)cccc3Cl)N(Nc3ccccc3)C2C1=O (configuration not stated)
Response: -2.08

Query: Let us now turn to `COCCOC(=O)N1C(=O)[C@@]2(c3cc(C#CC4=CCCCC4)ccc31)[C@H](c1ccc(O)cc1)N1[C@H](c3ccccc3)[C@H](c3ccccc3)OC(=O)[C@H]1[C@@H]2C(=O)Nc1nc2ccccc2s1`
Response: 1.55

Query: Let us now turn to `CCCc1cccc(=O)o1`
Response: 0.685

Query: Let us now turn to `COCCCNC(=O)[C@@]1(Sc2ccc(C)cc2)CC(=O)N(Cc2cc(C(F)(F)F)cc(C(F)(F)F)c2)[C@@H]1c1ccc(CO)cc1`
Response: 0.242

Query: Let us now turn to `COCCCNC(=O)[C@]1(CCC(=O)OC(C)(C)C)N=C(c2ccc(OCCCO)cc2)O[C@@H]1c1ccccc1`
Response: -0.00397

Query: Let us now turn to `C=C[C@H](COC(C)=O)NS(=O)(=O)c1ccc(Br)cc1`
Response: 1.96

Query: Let us now turn to `C=CCNC(=O)[C@H]1[C@@H]2C(=O)O[C@@H](c3ccccc3)[C@@H](c3ccccc3)N2[C@@H](c2ccccc2OCCO)[C@]12C(=O)N(C(=O)OCCOC)c1ccc(C#CC3=CCCCC3)cc12`
Response: 2.28

Query: Let us now turn to `CO[C@H]1O[C@H](CO)[C@@H](OC(=O)c2ccc(Br)cc2)[C@@H]2OC(=O)[C@@H](Cc3ccc4ccccc4c3)C/C=C/C[C@H](Cc3ccc4ccccc4c3)C(=O)O[C@@H]12`
Response: 1.76

Query: Let us now turn to `COC(=O)[C@@]1(Cc2ccc(F)cc2)[C@H]2c3cc(C(=O)N4CCCC4)n(CCc4c[nH]c5ccc(OC)cc45)c3C[C@H]2CN1C(=O)c1ccccc1`
Response: -3.07

Query: Let us now turn to `[N-]=[N+]=NCc1ccccc1C[C@@]1(C(=O)N2CCCCC2)N=C(c2ccc(OCCCO)cc2)O[C@@H]1c1ccccc1N=[N+]=[N-]`
Response: 1.2

Query: Let us now turn to CN1C(=O)C2C(C1=O)C1C=C(c3ccc(CO)cc3)C2C(c2cccs2)N1Cc1cccc(OC(F)(F)F)c1 (configuration not stated)
Response: -2.71

Query: Let us now turn to `CCCC[C@@H]1C[C@H]1[C@@H](NC(=O)c1cccnc1)c1ccc(-c2ccccc2)cc1`
Response: -1.01

Query: Let us now turn to COc1cc(OC)c(C(O)C2C=CC3C(=O)N(c4ccccc4)C(=O)C3N2Nc2ccc(C#N)cc2)cc1Br (configuration not stated)
Response: -1.41

Query: Let us now turn to `C=C(/C=C/CNS(=O)(=O)c1ccc(C)cc1)[C@H](O)[C@H]1CCCN1S(=O)(=O)c1ccccc1[N+](=O)[O-]`
Response: -0.358

Query: Let us now turn to `C=CCOC(=O)[C@@H]1[C@H]2C(=O)O[C@H](c3ccccc3)[C@H](c3ccccc3)N2[C@H](c2ccc(OCCOC(=O)[C@H]3C[C@H]4C(=O)N[C@@H](CCCCN(C)C)C(=O)N4[C@H]3c3cccc(OCCO)c3)cc2)[C@@]12C(=O)Nc1ccc(I)cc12`
Response: 1.53

Query: Let us now turn to `COc1cc2c(cc1OC)CN(C(=O)[C@H]1[C@@H]3C(=O)O[C@@H](c4ccccc4)[C@@H](c4ccccc4)N3[C@@H](c3ccc(OCCO)cc3)[C@]13C(=O)Nc1ccc(C#CCCO)cc13)CC2`
Response: 1.46

Query: Let us now turn to `COCCCNC(=O)[C@@]1(Sc2ccc(C)cc2)CC(=O)N(C2Cc3ccccc3C2)[C@@H]1c1ccc(CO)cc1I`
Response: 2.2

Query: Let us now turn to `NCCCCCCNC(=O)[C@H]1C[C@H]2C(=O)N[C@@H](Cc3ccccc3)C(=O)N2[C@H]1c1ccc(O)cc1`
Response: 1.81

Query: Let us now turn to `O=C(CS)NCCCCCCNC(=O)[C@@H]1C[C@@H]2C(=O)N3CCC[C@H]3C(=O)N2[C@@H]1c1cccc(OCCO)c1`
Response: 1.17

Query: Let us now turn to CCCCN1CC=CC23O[C@@H]4C=CCOC(=O)[C@@H]4[C@H]2C(=O)N(CCCO)[C@@H]3C1=O (some centres not stated)
Response: 0.05

Query: Let us now turn to NC(=O)N1C(=O)C2C(C1=O)C1C=C(c3ccc(CO)cc3)C2C(C2CC2)N1Cc1sc2ccccc2c1Cl (configuration not stated)
Response: 2.51

Query: Let us now turn to `O=C1O[C@@H](c2ccccc2)[C@@H](c2ccccc2)N2[C@@H](c3ccc(O)cc3)[C@]3(C(=O)Nc4ccc(C#CCCO)cc43)[C@@H](C(=O)Nc3nc4ccccc4s3)[C@H]12`
Response: 1.1
